src = ChEMBL document CHEMBL4346726

Method notes: Half life in cynomolgus monkey at 0.5 mg/kg, iv or 1 mg/kg, po
Format: ADME, organism-based, Macaca fascicularis
Settings: in vivo

Record smiles: CC[C@@H]1[C@@H]2CN(C(=O)[C@H](C(C)(C)C)NC(=O)O[C@@H]3C[C@H]3CCCCC(F)(F)c3nc4ccc(OC)cc4nc3O2)[C@@H]1C(=O)N[C@]1(C(=O)NS(=O)(=O)C2(C)CC2)C[C@H]1C(F)F
half-life [h]: 2.1

----------
Method notes: Ratio of drug level in dog liver to plasma at 0.5 mg/kg, iv or 1 mg/kg, po measured at 2 hr
Format: ADME, […], Canis lupus familiaris
Reported metric: Kp at 2 h

Record smiles: CC[C@@H]1[C@@H]2CN(C(=O)[C@H](C(C)(C)C)NC(=O)O[C@@H]3C[C@H]3CCCCC(F)(F)c3nc4ccc(OC)cc4nc3O2)[C@@H]1C(=O)N[C@]1(C(=O)NS(=O)(=O)C2(C)CC2)C[C@H]1C(F)F
Reported metric: Kp at 2 h
Endpoint value: 55
